# System: ICR mice
# Format: in vivo
# conditionDescription: p.o., 4 g/kg
Entries and their Mortality

compoundSmiles	Mortality
CC(=O)OC/C(=N\O)[C@@]1(O)CC[C@H]2[C@@H]3CCC4=CC(=NO)CC[C@]4(C)[C@H]3[C@@H](O)C[C@@]21C	0/12
C[C@]12C=CC(=NO)C=C1CC[C@@H]1[C@@H]2[C@@H](O)C[C@@]2(C)[C@H]1CC[C@]2(O)/C(CO)=N/O	0/12
CC(=O)OC/C(=N\O)[C@@]1(O)CC[C@H]2[C@@H]3C[C@H](C)C4=CC(=NO)C=C[C@]4(C)[C@H]3[C@@H](O)C[C@@]21C	0/12

Please give the measured Mortality for this compound: CCC(=O)OC/C(=N\O)[C@@]1(O)[C@H](O)C[C@H]2[C@@H]3CCC4=CC(=NO)C=C[C@]4(C)[C@@]3(F)[C@@H](O)C[C@@]21C
0/12

Param item = C[C@H]1C[C@@H]2[C@H]([C@@H](O)C[C@@]3(C)[C@H]2CC[C@]3(O)/C(CO)=N/O)[C@@]2(C)C=CC(=NO)C=C12 ; retrieve measured Mortality.
0/12

---

# Test system: ICR mice
# Type: in vivo
# conditionDescription: p.o., 12 g/kg
Measured Mortality, listed per entry.

compoundSmiles	reportedValue
CC1(C)O[C@@H]2C[C@H]3[C@@H]4C[C@H](F)C5=CC(=NO)C=C[C@]5(C)[C@@]4(F)[C@@H](O)C[C@]3(C)[C@]2(/C(CO)=N/O)O1	0/12
C[C@]12C=CC(=NO)C=C1CC[C@@H]1[C@@H]2[C@@H](O)C[C@@]2(C)[C@H]1CC[C@]2(O)/C(CO)=N/O	0/12
CC(=O)OC/C(=N\O)[C@@]1(O)CC[C@H]2[C@@H]3C[C@H](C)C4=CC(=NO)C=C[C@]4(C)[C@H]3[C@@H](O)C[C@@]21C	4/12
C[C@H]1C[C@@H]2[C@H]([C@@H](O)C[C@@]3(C)[C@H]2CC[C@]3(O)/C(CO)=N/O)[C@@]2(C)C=CC(=NO)C=C12	0/12

I'd like to know its Mortality. The molecule in question is CCCCC(=O)O[C@]1(/C(CO)=N/O)CC[C@H]2[C@@H]3C[C@H](C)C4=CC(=NO)C=C[C@]4(C)[C@H]3[C@@H](O)C[C@@]21C
0/12

Give the measured Mortality of CCON=C1C=C[C@@]2(C)C(=C1)CC[C@@H]1[C@@H]2[C@@H](O)C[C@@]2(C)[C@H]1C[C@@H](C)[C@]2(O)/C(COC(C)=O)=N/OCC .
0/12

# input molecule: C[C@@H]1C[C@H]2[C@@H]3CCC4=CC(=NO)C=C[C@]4(C)[C@H]3[C@@H](O)C[C@]2(C)[C@H]1/C(CO)=N/O ; wanted: its Mortality
4/12

Report Mortality for CCC(=O)OC/C(=N\O)[C@@]1(O)[C@H](O)C[C@H]2[C@@H]3CCC4=CC(=NO)C=C[C@]4(C)[C@@]3(F)[C@@H](O)C[C@@]21C please.
1/12

Can you share its Mortality? I mean this molecule: CC(=O)OC/C(=N\O)[C@@]1(O)CC[C@H]2[C@@H]3CCC4=CC(=NO)CC[C@]4(C)[C@H]3[C@@H](O)C[C@@]21C
2/12

Can you share its Mortality? I mean this molecule: CCON=C1C=C[C@@]2(C)C(=C1)[C@@H](C)C[C@@H]1[C@@H]2[C@@H](O)C[C@@]2(C)[C@H]1CC[C@]2(O)/C(CO)=N/OCC
0/12
